B1: Osa-1-4 twister ribozyme (parent)
chain: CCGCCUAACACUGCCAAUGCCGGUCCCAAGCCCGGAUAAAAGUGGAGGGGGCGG

Variants of: B1
Experiment: self-cleavage, relative activity (ratio to wild type); higher = more cleavage; co-transcriptional
Experimental Readout: self-cleavage
Give bare numbers.

Mutant Designation: A10U C20U
self-cleavage: 0.05

Mutant Designation: A7C G44U
self-cleavage: 0.05

Problem: Reported self-cleavage, variant C20G U24G : ____
Result: 0.05
